Origin of values: paper PMC6522510

test system: M07e; parameters: species or system AML cell lines (8); Primary HTS, single concentration about 10 uM, Cell Titer Glo viability; log10 luminescence, per cent inhibition relative to cycloheximide control; settings: 72 h, relative to cycloheximide control, log10 luminescence; inhibitor
Where a name gives a salt, the structure may show the parent alone.
readout-type: M07e %inh (%)
Please give a number only; it is taken to be in %.

Identify measured M07e %inh associated with COc1cc2ncn(-c3cc(OCc4cccs4)c(C(N)=O)s3)c2cc1OC [SJ000573255-1, U21051/7/15]
12.77

Identify measured M07e %inh associated with C[C@]12CCC(=O)C=C1[C@@H]1C[C@@H]1[C@H]1[C@@H]3[C@@H]4C[C@@H]4[C@@]4(CCC(=O)O4)[C@@]3(C)CC[C@@H]12 [SJ000312356-2, DROSPIRENONE]
3.09

Identify measured M07e %inh associated with N#Cc1ccc(NCCNCC(=O)N2CCC[C@H]2C#N)nc1 [SJ000772405-1, NVP DPP 728 DIHYDROCHLORIDE]
-0.0114

---

tested on: MOLM-13; set-up: species or system AML cell lines (8); Primary HTS, single concentration about 10 uM, Cell Titer Glo viability; log10 luminescence, per cent inhibition relative to cycloheximide control; conditions: 72 h, relative to cycloheximide control, log10 luminescence; inhibitor
Counter-ions that a name gives are not always drawn.
readout-type: MOLM-13 %inh (%)
Please give a number only; it is taken to be in %.

// below: answered compounds
[
  {
    "compound": "CC(=O)Nc1nnc(S(N)(=O)=O)s1 [SJ000285803-7, ACETAZOLAMIDE]",
    "system-name": "MOLM-13",
    "MOLM-13 %inh (%)": 3.554
  },
  {
    "compound": "c1ccc(COc2ccc(Nc3ncnc4ccc(-c5ccco5)cc34)cc2)cc1",
    "system-name": "MOLM-13",
    "MOLM-13 %inh (%)": 27.04
  },
  {
    "compound": "Cc1cc(O)cc(C)c1/C=C/c1cncc(C(=O)N(C)C)c1",
    "system-name": "MOLM-13",
    "MOLM-13 %inh (%)": -1.208
  },
  {
    "compound": "COc1ccc2c(-c3ccnc(Nc4cccc(OC(F)(F)F)c4)n3)cnn2n1",
    "system-name": "MOLM-13",
    "MOLM-13 %inh (%)": -2.645
  },
  {
    "compound": "CC(=O)N[C@@H](Cc1ccc(OP(=O)(O)O)cc1)C(=O)N[C@H]1CCC(=O)N2CCC[C@@H](C(=O)NC3CCc4ccccc43)N2C1=O (some centres unmarked)",
    "system-name": "MOLM-13",
    "MOLM-13 %inh (%)": 0.9252
  }
]

Report value: MOLM-13 %inh, system: MOLM-13, compound: COc1cc2c(cc1OC)C(=O)C(CC1CCN(Cc3ccccc3)CC1)C2 (centres unmarked) [SJ000555704-1, DONEPEZIL HYDROCHLORIDE]
1.714

Report value: MOLM-13 %inh, system: MOLM-13, compound: O=C(Nc1n[nH]c2nc(-c3ccco3)ccc12)C1CC1
1.202

Report value: MOLM-13 %inh, system: MOLM-13, compound: CC(C)Nc1ncc2cc(Oc3ccc(F)cc3F)c(=O)n(C)c2n1
2.517

---

test system: CMS; experiment: Secondary dose-response HTS, Cell Titer Glo; assay type: cell-based, human; conditions: Homo sapiens; secondary HTS, 72 h, average of triplicate; read-out: EC50 CMS
Here the recorded pEC50 is given for each entry.
Conceptually, pEC50 converts a concentration in mol/L into minus its log10.

// below: answered compounds
[
  {
    "compound": "O=C1c2c(O)ccc(O)c2C(=O)c2c(NCCNCCO)ccc(NCCNCCO)c21 [Mitoxantrone, reference compound]",
    "pEC50": 7.10
  },
  {
    "compound": "COC[C@H](NC(=O)c1cnc(C)s1)C(=O)N[C@@H](COC)C(=O)N[C@@H](Cc1ccccc1)C(=O)[C@@]1(C)CO1 [Oprozomib, reference compound]",
    "pEC50": 9.00
  },
  {
    "compound": "CC(C)C[C@H](NC(=O)[C@H](CCc1ccccc1)NC(=O)CN1CCOCC1)C(=O)N[C@@H](Cc1ccccc1)C(=O)N[C@@H](CC(C)C)C(=O)[C@@]1(C)CO1 [Carfilzomib, reference compound]",
    "pEC50": 9.00
  },
  {
    "compound": "C[C@@H]1O[C@@H](O[C@H]2C[C@@H](O)[C@]3(CO)[C@H]4[C@H](O)C[C@]5(C)[C@@H](C6=CC(=O)OC6)CC[C@]5(O)[C@@H]4CC[C@]3(O)C2)[C@H](O)[C@H](O)[C@H]1O [Ouabain, reference compound]",
    "pEC50": 7.30
  }
]

# next compound below
Report value: pEC50, system: CMS, compound: CC(C)C[C@H](NC(=O)[C@H](Cc1ccccc1)NC(=O)c1cnccn1)B(O)O [Bortezomib, reference compound]
9.00

---

Here the recorded CMS %inh is given for each entry.
test system: CMS; parameters: species or system AML cell lines (8); Primary HTS, single concentration about 10 uM, Cell Titer Glo viability; log10 luminescence, per cent inhibition relative to cycloheximide control; conditions: 72 h, relative to cycloheximide control, log10 luminescence; inhibitor
Where a name gives a salt, the structure may show the parent alone.
Please give a number only; it is taken to be in %.

// below: answered compounds
[
  {
    "compound": "Cn1cc(C2=C(N3CCOCC3)C(=O)NC2=O)c2ccccc21",
    "readout-type": "CMS %inh",
    "result-units": "%",
    "recorded-measurement": 2.558
  },
  {
    "compound": "COC(=O)Nc1nc2ccc(Sc3ccc(NC(=O)Nc4cc(C(F)(F)F)ccc4F)cc3)cc2[nH]1",
    "readout-type": "CMS %inh",
    "result-units": "%",
    "recorded-measurement": -0.01293
  },
  {
    "compound": "COc1cccc(-n2ncc3c(N/N=C/c4ccc(S(C)(=O)=O)cc4)ncnc32)c1",
    "readout-type": "CMS %inh",
    "result-units": "%",
    "recorded-measurement": 0.1842
  },
  {
    "compound": "CN(C)CCOc1ccc(-c2nc(-c3ccncc3)c(-c3ccc4c(c3)CC/C4=N\\O)[nH]2)cc1",
    "readout-type": "CMS %inh",
    "result-units": "%",
    "recorded-measurement": 1.753
  },
  {
    "compound": "Cc1cccc(-c2n[nH]cc2-c2ccc3ncccc3n2)n1",
    "readout-type": "CMS %inh",
    "result-units": "%",
    "recorded-measurement": 2.179
  },
  {
    "compound": "N=C(N)NCCN1CCCCCCC1 [SJ000285779-4, GUANETHIDINE SULFATE]",
    "readout-type": "CMS %inh",
    "result-units": "%",
    "recorded-measurement": -3.451
  },
  {
    "compound": "CO[C@@]1(NC(=O)Cc2cccs2)C(=O)N2C(C(=O)O)=C(COC(N)=O)CS[C@@H]21 [SJ000285599-4, CEFOXITIN SODIUM]",
    "readout-type": "CMS %inh",
    "result-units": "%",
    "recorded-measurement": -1.051
  },
  {
    "compound": "NS(=O)(=O)c1cc2c(cc1Cl)NC(C(Cl)Cl)NS2(=O)=O (stereo not shown) [SJ000286143-4, TRICHLORMETHIAZIDE]",
    "readout-type": "CMS %inh",
    "result-units": "%",
    "recorded-measurement": 0.3933
  },
  {
    "compound": "COc1cccc(Nc2nccc(-c3cnn4ncccc34)n2)c1",
    "readout-type": "CMS %inh",
    "result-units": "%",
    "recorded-measurement": 93.88
  },
  {
    "compound": "CCC1(CC)C(=O)NC(=O)N(C)C1=O",
    "readout-type": "CMS %inh",
    "result-units": "%",
    "recorded-measurement": -4.139
  }
]

Identify measured CMS %inh associated with COc1ccc(-c2cc(-c3c[nH]nc3-c3ccccn3)ccn2)cc1
0.9761

Identify measured CMS %inh associated with c1ccc(-c2n[nH]cc2-c2ccnc(-c3ccc(OCCn4ccnc4)cc3)c2)nc1
-2.708

Identify measured CMS %inh associated with CS(=O)(=O)CCNCc1ccc(-c2ccc3ncnc(Nc4ccc(OCc5ccccc5)cc4)c3c2)o1
0.8735

Identify measured CMS %inh associated with Fc1ccc(-c2c(-c3ccncc3)[nH]c3nccnc23)cc1
2.205

Identify measured CMS %inh associated with CC(=O)O[C@H]1C[C@@H]2CC[C@@H]3[C@H](CC[C@@]4(C)[C@H]3C[C@H](N3CC[N+](C)(C)CC3)[C@@H]4OC(C)=O)[C@@]2(C)C[C@@H]1N1CC[N+](C)(C)CC1 [SJ000555714-1, PIPECURIUM BROMIDE]
0.5876

Identify measured CMS %inh associated with CNC(=O)c1sc(-n2cnc3cc(OC)c(OC)cc32)cc1OCc1ccccc1C(F)(F)F
0.3871

Identify measured CMS %inh associated with Cn1cc(C2=C(c3c4n(c5ccccc35)CCCC4)C(=O)NC2=O)c2ccccc21
9.345

Identify measured CMS %inh associated with CCC(=O)O[C@]1(C(=O)CCl)[C@@H](C)C[C@H]2[C@@H]3C[C@H](F)C4=CC(=O)C=C[C@]4(C)[C@@]3(F)[C@@H](O)C[C@@]21C [SJ000574311-1, HALOBETASOL PROPIONATE]
-1.131
